# system_name: HLA-A*02:06
# protocol_summary: IEDB peptide-MHC binding, cellular MHC/competitive/fluorescence; bounds were set here for any values at or beyond the usual limits of such assays
# condition_parameters: source organism: Vaccinia virus WR
pIC50: −log10 of the molar value.
readout: pIC50

1. EIMDKEQLL 4.58
2. WIKNLETYT 5.09
3. TVKNVDIIDL 4.91
4. PTLFGRGVI 4.19
5. LTGNNTITT 5.06
6. IQKDINITHT 4.21
7. EQYTCNKPYT 4.34
8. PLHIVCSKTV 4.57
9. ELPVKTDIV 4.94
10. KLISEKETL 5.12
11. VLQQNNSFII 5.02
12. DTCLLAISA 4.60
13. NLYISDYKML 4.44
14. PIPMSRLFM 4.50
15. EVLMSPCRM 4.93
16. PLIISTDQDT 4.32
17. VIVVPVIDRL 4.96
18. NINFNNSSII 4.52
19. LMLHNPTSET 4.96
20. IIRVTTELNI 4.86
21. SARALKAYFT 4.59
22. ELTSNCTRT 4.33
23. AVTLNRIKI 5.12
24. MAFILGIII 4.49
25. TVGMLIYSM 5.04
26. NLERETGLSA 4.82
27. NMWREILSNT 4.92
28. GTGILFMEM 5.00
29. GIKNLKSLL 4.21
30. LINLVQYRIL 4.80
31. DTGKKELAL 4.85
32. SLALKNSQA 4.72
33. TVDVRNIVT 4.27
34. DVEKRILNTI 4.97
35. DAKRNSKSLV 4.28
36. LITNTKSDNI 4.73
37. CVRLNNPVIL 4.35
38. PAHLINKLL 4.37
39. PLPSLEYGA 4.37
40. TVEFDRDKVV 4.51
41. KLFKRERDAI 4.85
42. NILGGVLHT 5.00
43. TQFNFNGHT 5.00
44. DVSVSVGTGI 4.65
45. NVKSKLLWFL 4.51
46. ITETIPIGM 5.11
47. ITDQTVNICI 4.98
48. DVIKSISSI 4.82
49. AVYFKAKWLT 5.06
50. ELLEMKYAL 5.22
51. IVDKFGKNHI 5.08
52. SMKGENVFI 4.86
53. FIQWTGGNI 5.23
54. KLYIALCKVT 5.20
55. NTNQGNILM 5.23
56. EVIGLTTHCT 4.91
57. IVSLCPTKKL 4.55
58. DTLVKSGLT 4.28
59. RVKQWVMDT 4.87
60. ELWARISSSL 5.03
61. ETAIRAGYSI 4.75
62. KTEHCDDFMT 4.94
63. PTEMVDVSMM 4.92
64. DLAIKQYGDI 4.33
65. DITNILGGVL 4.72
